molecular target: EGFR (Homo sapiens, UniProt P00533); construct: Recombinant catalytic domain, amino acids 668-1210, GST tagged, purified from insect cells; GST; assay: Radiometric kinase assay, EGFR; settings: read-out: potency (IC50) over EGFR assay
Sequence (P00533 668-1210): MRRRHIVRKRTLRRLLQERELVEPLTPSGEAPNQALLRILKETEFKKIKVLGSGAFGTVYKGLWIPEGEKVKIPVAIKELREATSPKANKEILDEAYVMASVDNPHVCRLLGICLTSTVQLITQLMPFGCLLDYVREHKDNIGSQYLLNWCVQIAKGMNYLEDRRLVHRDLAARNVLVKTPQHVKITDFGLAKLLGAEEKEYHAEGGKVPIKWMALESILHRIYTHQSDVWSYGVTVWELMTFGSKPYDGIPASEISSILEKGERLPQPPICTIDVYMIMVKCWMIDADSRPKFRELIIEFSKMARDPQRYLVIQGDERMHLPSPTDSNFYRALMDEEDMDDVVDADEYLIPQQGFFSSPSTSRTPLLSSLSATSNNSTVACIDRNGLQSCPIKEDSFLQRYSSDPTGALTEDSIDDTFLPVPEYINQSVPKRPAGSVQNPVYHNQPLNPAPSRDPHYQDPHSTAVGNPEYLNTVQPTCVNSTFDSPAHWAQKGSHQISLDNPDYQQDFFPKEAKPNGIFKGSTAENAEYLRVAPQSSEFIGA
property.name: IC50

Some compounds with recorded IC50:
{"structure.smiles.string": "C#Cc1cccc(Nc2c(C#N)cnc3cc(OCC)c(NC(=O)/C=C/CN(C)C)cc23)c1", "property.name": "IC50", "measurement": "< 1000 nM"}
{"structure.smiles.string": "[2H]C([2H])([2H])N(C/C=C/C(=O)Nc1cc2c(Nc3cccc(C#C)c3)c(C#N)cnc2cc1OCC)C([2H])([2H])[2H]", "property.name": "IC50", "measurement": "< 1000 nM"}

Now let's try a different one.
input: Need IC50 of `[2H]C([2H])([2H])N(C/C=C/C(=O)Nc1cc2c(Nc3ccc(OCc4ccccn4)c(Cl)c3)c(C#N)cnc2cc1OCCOC)C([2H])([2H])[2H]` , thanks.
output: < 1000 nM
